# experimental details: Anodic peak potentials by differential pulse voltammetry
# Type: physicochemical
# stated conditions: 298 K versus Ag/AgCl, at the pKa
The following compounds are shown together with reported Epa @ pKa values.
measured parameter: Epa @ pKa (V)

compound	number
CN(C)c1ncc(O)cn1	0.31
CN(C)c1ccc(O)cn1	0.12
CC(=O)Nc1ccc(O)cc1 [compound 1, Acetaminophen, reference compound]	0.32
CC(=O)Nc1ncc(O)cn1	1.02
CC(=O)Nc1ccc(O)cn1	0.48

---

# tgt: ovine COX-1 (Ovis aries, UniProt P05979)
# Sequence (P05979 25-600): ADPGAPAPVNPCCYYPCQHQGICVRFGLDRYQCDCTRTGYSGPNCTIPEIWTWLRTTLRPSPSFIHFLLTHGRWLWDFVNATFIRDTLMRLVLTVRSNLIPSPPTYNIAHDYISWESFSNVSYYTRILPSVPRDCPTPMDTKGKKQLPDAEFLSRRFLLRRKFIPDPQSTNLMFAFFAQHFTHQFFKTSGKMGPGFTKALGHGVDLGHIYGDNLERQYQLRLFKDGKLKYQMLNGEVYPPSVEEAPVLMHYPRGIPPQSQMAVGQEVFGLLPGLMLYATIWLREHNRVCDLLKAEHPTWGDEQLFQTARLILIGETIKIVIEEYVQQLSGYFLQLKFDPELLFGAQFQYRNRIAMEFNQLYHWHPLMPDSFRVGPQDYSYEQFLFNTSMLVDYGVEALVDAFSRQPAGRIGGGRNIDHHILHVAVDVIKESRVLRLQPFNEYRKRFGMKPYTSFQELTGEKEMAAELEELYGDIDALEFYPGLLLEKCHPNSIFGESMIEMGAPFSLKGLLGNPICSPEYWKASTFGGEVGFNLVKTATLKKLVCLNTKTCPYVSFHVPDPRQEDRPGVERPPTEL
measured parameter: IC50 (µM)

compound	measured parameter	readout units	number
CC(=O)Nc1ccc(O)cc1 [compound 1, Acetaminophen, reference compound]	IC50	µM	250
